System: Escherichia coli TOP10;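 also: peptides expressed intracellularly from a pBAD plasmid library in pooled LB shake-flask culture, induced with 0.3% L-arabinose, DNA abundance read by NGS, three biological replicates, DESeq2 with apeglm shrinkage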
PROTOCOL_TEXT: shrunken log2 fold change of peptide-encoding DNA abundance (4.5 h post-induction vs induction); higher = less antimicrobial activity (less host growth inhibition)
PROTOCOL_CONDITIONS: time post-induction: 4.5 h; library: site-saturation at positions 5, 18, 19, 20
Classification field. Basis: shrunken log2 fold change. Definitions: bottom (below -0.03), middle (-0.03 to below 0.1), top (0.1 or more)

[
  {
    "ORDERED_RESIDUES": "RRIRERPPRLPRPRPRPTTQPRP",
    "ASSAY_SYSTEM": "Escherichia coli TOP10",
    "LABEL_CLASS": "top"
  },
  {
    "ORDERED_RESIDUES": "RRIRRRPPRLPRPRPRPPGAPRP",
    "ASSAY_SYSTEM": "Escherichia coli TOP10",
    "LABEL_CLASS": "top"
  },
  {
    "ORDERED_RESIDUES": "RRIRYRPPRLPRPRPRPAMWPRP",
    "ASSAY_SYSTEM": "Escherichia coli TOP10",
    "LABEL_CLASS": "bottom"
  },
  {
    "ORDERED_RESIDUES": "RRIRQRPPRLPRPRPRPFQDPRP",
    "ASSAY_SYSTEM": "Escherichia coli TOP10",
    "LABEL_CLASS": "bottom"
  },
  {
    "ORDERED_RESIDUES": "RRIRWRPPRLPRPRPRPSAKPRP",
    "ASSAY_SYSTEM": "Escherichia coli TOP10",
    "LABEL_CLASS": "top"
  }
]

Problem: Textbook exercise: identify the category of the sequence given here, RRIRFRPPRLPRPRPRPWLDPRP , according to its measured value.
Result: middle

Problem: Textbook exercise: identify the category of the sequence given here, RRIRKRPPRLPRPRPRPIKHPRP , according to its measured value.
Result: top

Problem: Textbook exercise: identify the category of the sequence given here, RRIRVRPPRLPRPRPRPRDPPRP , according to its measured value.
Result: top

Problem: Textbook exercise: identify the category of the sequence given here, RRIRHRPPRLPRPRPRPCFCPRP , according to its measured value.
Result: bottom

Problem: Textbook exercise: identify the category of the sequence given here, RRIRCRPPRLPRPRPRPFAAPRP , according to its measured value.
Result: top

Problem: Textbook exercise: identify the category of the sequence given here, RRIRTRPPRLPRPRPRPQDQPRP , according to its measured value.
Result: middle

Problem: Textbook exercise: identify the category of the sequence given here, RRIRWRPPRLPRPRPRPTNIPRP , according to its measured value.
Result: bottom

Problem: Textbook exercise: identify the category of the sequence given here, RRIRERPPRLPRPRPRPFWWPRP , according to its measured value.
Result: top

Problem: Textbook exercise: identify the category of the sequence given here, RRIRQRPPRLPRPRPRPDGPPRP , according to its measured value.
Result: middle

Problem: Textbook exercise: identify the category of the sequence given here, RRIRVRPPRLPRPRPRPQPQPRP , according to its measured value.
Result: top
